molecular target: MRP2 (ABCC2, multidrug resistance protein 2) (Homo sapiens, UniProt Q92887); assay: calcein retention (calcein-AM) in Caco-2 cells; CDF transport across Caco-2 monolayers
Sequence (Q92887 whole entry): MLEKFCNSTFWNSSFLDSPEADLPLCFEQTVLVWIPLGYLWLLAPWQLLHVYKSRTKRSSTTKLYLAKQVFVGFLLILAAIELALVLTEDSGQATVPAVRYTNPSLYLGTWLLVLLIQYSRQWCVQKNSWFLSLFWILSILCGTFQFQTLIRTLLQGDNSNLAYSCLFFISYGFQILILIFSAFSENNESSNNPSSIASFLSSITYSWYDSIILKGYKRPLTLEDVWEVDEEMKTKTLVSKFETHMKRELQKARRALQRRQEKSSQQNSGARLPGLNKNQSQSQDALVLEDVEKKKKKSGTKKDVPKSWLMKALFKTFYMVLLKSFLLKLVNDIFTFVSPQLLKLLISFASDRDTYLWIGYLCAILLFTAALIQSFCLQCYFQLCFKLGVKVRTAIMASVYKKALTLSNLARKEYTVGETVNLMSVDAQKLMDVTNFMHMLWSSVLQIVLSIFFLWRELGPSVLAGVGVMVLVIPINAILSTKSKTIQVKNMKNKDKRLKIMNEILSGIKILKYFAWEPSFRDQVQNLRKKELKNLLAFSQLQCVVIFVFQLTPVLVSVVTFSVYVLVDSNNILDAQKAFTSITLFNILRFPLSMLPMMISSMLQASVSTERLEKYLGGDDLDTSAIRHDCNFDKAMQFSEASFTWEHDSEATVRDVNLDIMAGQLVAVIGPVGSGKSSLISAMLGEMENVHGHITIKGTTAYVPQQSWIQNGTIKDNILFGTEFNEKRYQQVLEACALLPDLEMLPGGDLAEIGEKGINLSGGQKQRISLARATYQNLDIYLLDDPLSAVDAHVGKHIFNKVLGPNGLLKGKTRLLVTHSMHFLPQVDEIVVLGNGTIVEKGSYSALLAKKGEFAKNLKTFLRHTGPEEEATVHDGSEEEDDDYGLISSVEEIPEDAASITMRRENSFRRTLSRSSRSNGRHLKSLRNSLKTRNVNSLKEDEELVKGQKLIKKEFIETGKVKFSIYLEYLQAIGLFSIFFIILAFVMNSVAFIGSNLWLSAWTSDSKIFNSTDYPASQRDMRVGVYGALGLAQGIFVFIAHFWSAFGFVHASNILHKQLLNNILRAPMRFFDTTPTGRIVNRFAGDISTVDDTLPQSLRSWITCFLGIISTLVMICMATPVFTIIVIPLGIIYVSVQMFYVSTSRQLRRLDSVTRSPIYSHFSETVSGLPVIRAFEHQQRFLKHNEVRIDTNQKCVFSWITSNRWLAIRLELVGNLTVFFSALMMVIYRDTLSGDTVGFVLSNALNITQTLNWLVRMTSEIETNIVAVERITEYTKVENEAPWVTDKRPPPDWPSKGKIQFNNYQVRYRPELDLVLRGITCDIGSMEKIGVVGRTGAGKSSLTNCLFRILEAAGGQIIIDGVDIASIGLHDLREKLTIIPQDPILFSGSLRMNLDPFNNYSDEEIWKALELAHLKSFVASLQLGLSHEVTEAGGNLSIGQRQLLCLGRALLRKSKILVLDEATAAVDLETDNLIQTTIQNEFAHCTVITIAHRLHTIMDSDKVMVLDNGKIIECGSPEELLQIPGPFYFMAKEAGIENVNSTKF
measured endpoint: EC50 (µM)
The response must be a number in µM with no trailing unit.

So what EC50 did CN(C)C(=O)CCSC(SCCC(=O)O)c1cccc(/C=C/c2ccc3ccc(Cl)cc3n2)c1 (stereo not shown) get with MRP2 (ABCC2, multidrug resistance protein 2) (Homo sapiens, UniProt Q92887)?
20

Sourced from paper PMC4730408
